System Under Test: GalNAc(a1-3)Gal
Assay Summary: glycan array binding signal (z-score within array); higher = stronger binding
Condition Notes: glycan notation: IUPAC condensed, linker removed
This is one part of a sample in which the strongest signals are shown more often than they occur.
Readout Type: glycan array binding signal (z-score)
Provide a numeric answer; units are not to be included.

>>> measured_value("SAG1 (Toxoplasma gondii), P13664 (protein) MSVSLHHFIISSGFLTSMFPKAVRRAVTAGVFAAPTLMSFLRCGVMASDPPLVANQVVTCPDKKSTAAVILTPTENHFTLKCPKTALTEPPTLAYSPNRQICPAGTTSSCTSKAVTLSSLIPEAEDSWWTGDSASLDTAGIKLTVPIEKFPVTTQTFVVGCIKGDDAQSCMVTVTVQARASSVVNNVARCSYGADSTLGPVKLSAEGPTTMTLVCGKDGVKVPQDNNQYCSGTTLTGCNEKSFKDILPKLTENPWQGNASSDKGATLTIKKEAFPAESKSVIIGCTGGSPEKHHCTVKLEFAGAAGSAKSAAGTASHVSIFAMVIGLIGSIAACVA")
-0.761
>>> measured_value("Epa11 (Candida glabrata) (protein) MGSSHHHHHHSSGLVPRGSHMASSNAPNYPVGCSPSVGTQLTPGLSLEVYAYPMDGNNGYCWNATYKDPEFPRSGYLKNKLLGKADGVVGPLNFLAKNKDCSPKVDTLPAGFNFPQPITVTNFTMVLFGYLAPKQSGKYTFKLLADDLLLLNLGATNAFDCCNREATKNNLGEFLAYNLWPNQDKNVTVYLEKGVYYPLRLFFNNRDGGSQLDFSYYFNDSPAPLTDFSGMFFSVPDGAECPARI")
-0.428
>>> measured_value("SRS6 (Toxoplasma gondii), Q9NH12 (protein) MARTGSMQQRRGGFQTTARMLMAVCVSGVLLLSSGPSSANKLTEGQQNQNSGPGAATQEGPTIEGAVAKCVLKTTAAENGSSRAKNTTGLTLSKENLVVSLQCSGEKNAIVPKDQKKVCSAAPNAKVADCKGADTDKQVTLKSLLGTSGDIQWEKTIVSTDNKGEVMTLKIKESELPLFDKAFFVGCEEDKAQTRTSQATECKVNVSVKARPSTVGENNVVTCAYGKDSNPRPLEVEMSADNDTLTIDCGTDGSLKPTKYTEEFCVTDNSQLESCTTKKFSEILPTFLPSWWVSDSQNGSAKLTIPESGFPEEQQQFRLGCVPKKTTQSPQANPSVKTEKEEGAQNTDASTSNCSVIVTVKASNFSSLASSIAPTAAVAGGAAALTGFLVGSF")
0.054

Now look at this entry.
Please report the measured glycan array binding signal (z-score) for AcfC (Vibrio cholerae), Q57410 (protein) MKSKNRFLLISLLSFSTSVFADVNLYGPGGPHVPLIKVAESFEKSQSKRVNITFGPQATWNDKAKKNADILFGASEHSALAIAEGHSERFSKFNIHPVFMREAIILVKKGNPKNIKGMADLLKPGIGIVVNDGAGVSNTSGTAVWEDSVGRMKNVEKLQAFRSNIHVFAPNSGSARKAFVDGEDIDAWITWVDWAIANPTIGDMVRMEDEYRIYRDFNVVLAKNPSSEAIDFFDYLTKSKDAEAIFQHYGWFK
0.334

Entry source: the supplement of paper PMC8728848
